FYI, the data here is from patent US8895695B2.

# target: CXCR4 (Homo sapiens, UniProt P61073)
# Sequence (P61073 whole entry): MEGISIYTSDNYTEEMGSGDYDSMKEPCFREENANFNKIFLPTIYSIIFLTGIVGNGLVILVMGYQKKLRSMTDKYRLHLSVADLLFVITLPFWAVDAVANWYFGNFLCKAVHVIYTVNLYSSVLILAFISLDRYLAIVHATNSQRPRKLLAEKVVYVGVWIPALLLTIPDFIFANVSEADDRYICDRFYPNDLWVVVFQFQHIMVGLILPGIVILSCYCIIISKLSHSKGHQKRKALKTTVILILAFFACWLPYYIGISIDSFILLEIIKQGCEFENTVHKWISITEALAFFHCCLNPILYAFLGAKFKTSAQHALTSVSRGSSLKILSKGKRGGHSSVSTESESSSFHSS
# experiment-description: Ca2+-assay method 2 (Flexstation, SDF-1 induced calcium mobilization)
# Format: cell-based
# Parameters: expressed in transfected cells; host or cells: mouse pre-B cell line 300-19
# measurement-setup: method 2 (Ex. 54-160), mouse pre-B cell line 300-19 with human CXCR4, 10 nM SDF-1; read-out: IC50 (nM) Ca^2+ assay
Bridge positions count the residues as written; N and C are the ends. Square brackets hold non-standard residues; d marks the D form. Peptide text beside a SMILES is read from it. 2Nal = N[C@@H](Cc1ccc2ccccc2c1)C(=O)O; Cit = NC(=O)NCCC[C@H](N)C(=O)O
Quick reference: IC50 of the listed items.

{"columns": ["compound", "IC50"],
 "data": [
  ["N=C(N)NCCC[C@@H]1NC(=O)[C@@H]2CSSC[C@H](NC(=O)[C@H](Cc3ccc4ccccc4c3)NC(=O)[C@H](CCCNC(=N)N)NC(=O)[C@H](CCCNC(=N)N)NC(=O)[C@H]3CCCN3C(=O)CNC1=O)C(=O)N[C@@H](Cc1ccc(O)cc1)C(=O)N[C@@H](CCCNC(N)=O)C(=O)N[C@@H](CCC(=O)O)C(=O)N1CCC[C@@H]1C(=O)N1CCC[C@H]1C(=O)N[C@@H](Cc1ccc(O)cc1)C(=O)N[C@@H](CCCNC(=N)N)C(=O)N[C@@H](CCCNC(N)=O)C(=O)N2 [Ex. 103] (cyclo(YR[Cit]CRG[dP]RR[2Nal]CY[Cit]E[dP]P); disulfide 4-11)", "18.3 nM"],
  ["N=C(N)NCCC[C@@H]1NC(=O)[C@@H]2CSSC[C@H](NC(=O)[C@H](Cc3ccc4ccccc4c3)NC(=O)[C@H](CCCNC(=N)N)NC(=O)[C@H](CCCNC(=N)N)NC(=O)[C@H]3CCCN3C(=O)CNC1=O)C(=O)N[C@@H](Cc1ccc(O)cc1)C(=O)N[C@@H](CCC(N)=O)C(=O)N[C@@H](CCCCN)C(=O)N1CCC[C@@H]1C(=O)N1CCC[C@H]1C(=O)N[C@@H](Cc1ccc(O)cc1)C(=O)N[C@@H](CCCNC(=N)N)C(=O)N[C@@H](Cc1c[nH]cn1)C(=O)N2 [Ex. 70] (cyclo(YRHCRG[dP]RR[2Nal]CYQK[dP]P); disulfide 4-11)", "19.5 nM"],
  ["N=C(N)NCCC[C@@H]1NC(=O)[C@H](CO)NC(=O)[C@H](CCCNC(N)=O)NC(=O)[C@H](CCCNC(=N)N)NC(=O)[C@H](Cc2ccc(O)cc2)NC(=O)[C@@H]2CCCN2C(=O)[C@H]2CCCN2C(=O)[C@H](CCCCN)NC(=O)[C@H](CCCNC(N)=O)NC(=O)[C@H](Cc2ccc(O)cc2)NC(=O)[C@H](CC(N)=O)NC(=O)[C@H](Cc2c[nH]c3ccccc23)NC(=O)[C@H](CCCNC(=N)N)NC(=O)[C@H](CCCNC(=N)N)NC(=O)[C@H]2CCCN2C(=O)CNC1=O [Ex. 151] (cyclo(YR[Cit]SRG[dP]RRWNY[Cit]K[dP]P))", "4.2 nM"]
]}

Pending compound:
Item N=C(N)NCCC[C@@H]1NC(=O)[C@@H]2CSSC[C@H](NC(=O)[C@H](Cc3ccc4ccccc4c3)NC(=O)[C@H](CCCNC(=N)N)NC(=O)[C@H](CCCNC(=N)N)NC(=O)[C@H]3CCCN3C(=O)CNC1=O)C(=O)N[C@@H](Cc1ccc(O)cc1)C(=O)N[C@@H](CC(=O)O)C(=O)N[C@@H](CCCCN)C(=O)N1CCC[C@@H]1C(=O)N1CCC[C@H]1C(=O)N[C@@H](Cc1ccc(O)cc1)C(=O)N[C@@H](CCCNC(=N)N)C(=O)N[C@@H](CCCNC(N)=O)C(=O)N2 [Ex. 78] (cyclo(YR[Cit]CRG[dP]RR[2Nal]CYDK[dP]P); disulfide 4-11) has what recorded IC50? 11 nM
